For each of the molecules below, state its Fluorescence wavelength λem.
Experiment: Excitation and fluorescence wavelength by FL4500 fluorescence spectrophotometer
Conditions: 5 μM chloroform solution (Examples 30 to 34)
Give bare numbers.

Example entries begin here.
>>> recorded_number("O=C1c2ccccc2-c2cc(=O)n(C3CCCCC3)c3ccc(NC4CCCCC4)c1c23 [Compound 29]")
592
>>> recorded_number("CCCCn1c(=O)cc2c3c(c(NC4CCCCC4)ccc31)C(=O)c1ccccc1-2 [Compound 30]")
575
>>> recorded_number("CCCCn1c(=O)cc2c3c(c(NCCC4=CCCCC4)ccc31)C(=O)c1ccccc1-2 [Compound 32]")
573
>>> recorded_number("CCCCC(CC)CNc1ccc2c3c(cc(=O)n2CCCC)-c2ccccc2C(=O)c13 (centres unmarked) [Compound 31]")
574

// switching to the query molecule
Q: Entry under review: CCCCOCCCNc1ccc2c3c(cc(=O)n2CCCC)-c2ccccc2C(=O)c13 [Compound 33] . Reported Fluorescence wavelength λem?
Ans: 573

----------
For each of the compounds below, state its Fluorescence wavelength λem.
Experiment: Excitation and fluorescence wavelength by FL4500 fluorescence spectrophotometer
Conditions: 5 ηM DMSO solution (Examples 35 to 46)
One number for each entry.

>>> recorded_number("CSc1ccc(N2c3ccc(/C=C4/SC(=S)N(CCC(=O)O)C4=O)cc3C3CCCC32)cc1 (centres unmarked) [Compound 44]")
647
>>> recorded_number("COc1ccc(N2c3ccc(/C=C4/SC(=S)N(CCC(=O)O)C4=O)cc3C3CCCC32)cc1 (centres unmarked) [Compound 35]")
634
>>> recorded_number("CCN1c2ccc(/C=C/C=C3/SC(=S)N(CCC(=O)O)C3=O)cc2C2CCCC21 (centres unmarked) [Compound 43]")
671
>>> recorded_number("O=C(O)CCN1C(=O)/C(=C\\c2ccc3c(c2)C2CCCC2N3c2ccccc2)SC1=S (centres unmarked) [Compound 37]")
604
>>> recorded_number("CN1c2ccc(/C=C3/SC(=S)N(CCC(=O)O)C3=O)cc2C2CCCC21 (centres unmarked) [Compound 39]")
590
>>> recorded_number("CCn1c2ccccc2c2cc(/C=C3/SC(=S)N(CCC(=O)O)C3=O)ccc21 [Compound 41]")
540

// each listed compound needs a value for Fluorescence wavelength λem
1. CCN1CCc2cc(/C=C3/SC(=S)N(CCC(=O)O)C3=O)ccc21 [Compound 45]
2. CCCN1c2ccc(/C=C3/SC(=S)N(CCC(=O)O)C3=O)cc2C2CCCC21 (centres unmarked) [Compound 42]

Ans:
1. 597
2. 592

----------
Experiment: Excitation and fluorescence wavelength by FL4500 fluorescence spectrophotometer
Conditions: 5 ηM DMSO solution (Examples 35 to 46)
For each of the compounds below, state its Fluorescence wavelength λem.
Numbers only.

Example entries begin here.
>>> recorded_number("COc1ccc2cc(N3c4ccc(/C=C5/SC(=S)N(CCC(=O)O)C5=O)cc4C4CCCC43)ccc2c1 (stereo not shown) [Compound 38]")
646
>>> recorded_number("O=C(O)CCN1C(=O)/C(=C\\c2ccc3c(c2)C2CCCC2N3Cc2ccccc2)SC1=S (stereo not shown) [Compound 36]")
584
>>> recorded_number("CCN1c2ccc(/C=C3/SC(=S)N(CCC(=O)O)C3=O)cc2CC1C (stereo not shown) [Compound 40]")
593

// switching to the query compound
Q: Entry under review: O=C(O)CCN1C(=O)/C(=C\c2cc(Br)c3c(c2)C2CCCC2N3c2ccc(Br)cc2)SC1=S (stereo not shown) [Compound 34] . Reported Fluorescence wavelength λem?
Ans: 590
